- Measurement Target: human IDO1 (Homo sapiens)
- Sequence (P14902 whole entry): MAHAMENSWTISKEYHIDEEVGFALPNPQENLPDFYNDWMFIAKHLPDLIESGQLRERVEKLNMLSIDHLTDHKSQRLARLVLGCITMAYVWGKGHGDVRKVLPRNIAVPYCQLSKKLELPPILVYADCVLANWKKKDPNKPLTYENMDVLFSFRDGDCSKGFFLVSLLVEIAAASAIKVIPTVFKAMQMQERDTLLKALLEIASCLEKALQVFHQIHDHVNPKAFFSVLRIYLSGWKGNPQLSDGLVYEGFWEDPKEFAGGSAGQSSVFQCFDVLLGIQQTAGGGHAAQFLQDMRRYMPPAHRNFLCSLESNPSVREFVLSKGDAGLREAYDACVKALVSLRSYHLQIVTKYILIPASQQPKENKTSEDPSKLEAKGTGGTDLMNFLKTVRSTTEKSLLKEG
- Assay Details: Assessment of human IDO-1 inhibitory activity in HEK cells (human IDO1/HEK293 cells, kynurenine read-out with Ehrlich reagent, absorbance 490 nm)
- Type: cell-based
- Parameters: expressed in transfected cells
- Condition Details: HEK Human IDO-1 cellular assay
Readings of IC50 for the listed compounds

Q: Please indicate recorded IC50 of CCC(CC(=O)O)c1ccc(N2CCOC[C@H]2C(C)C)c(Nc2ccc(F)cc2)c1 (single isomer, unassigned) measured with human IDO1 (Homo sapiens).
Result: < 5 nM

Q: Please indicate recorded IC50 of CC[C@@H](CC(=O)O)c1ccc(N(CC)C2CCOCC2)c(Nc2cn3ccnc3cn2)c1 (single isomer, unassigned) measured with human IDO1 (Homo sapiens).
Result: > 50 nM

Q: Please indicate recorded IC50 of CC[C@@H](CC(=O)O)c1ccc(N(CC)C2CCOCC2)c(NC(=O)Nc2ccc(Cl)cc2)c1 (single isomer, unassigned) measured with human IDO1 (Homo sapiens).
Result: > 50 nM

Q: Please indicate recorded IC50 of COCC(CC(=O)O)c1cc(F)c(N(CC(C)C)CC(C)C)c(NC(=O)Cc2ccc(C)cc2)c1 (single isomer, unassigned) [Example 1177] measured with human IDO1 (Homo sapiens).
Result: < 50 nM

More entries:
Q: Please indicate recorded IC50 of CC[C@H](CC(=O)O)c1ccc(N(CC)C2CCCCC2)c(Nc2ccc(Cl)cc2)c1 (single isomer, unassigned) measured with human IDO1 (Homo sapiens).
Result: < 5 nM

Q: Please indicate recorded IC50 of CCN(c1ccc([C@@H](COC)CC(=O)NS(C)(=O)=O)cc1Nc1ccc(C#N)cc1)C1CCOCC1 (stereo in doubt) measured with human IDO1 (Homo sapiens).
Result: < 50 nM

Q: Please indicate recorded IC50 of CCC(CC(=O)O)c1cc(NC(=O)Nc2ccc(C)cc2)c(N(CC(C)C)CC(C)C)cc1F (single isomer, unassigned) [Example 1129] measured with human IDO1 (Homo sapiens).
Result: < 5 nM

Q: Please indicate recorded IC50 of CCOc1ccc(NC(=O)Nc2cc(C(C)CC(=O)O)ccc2N(CC(C)C)C2CCOCC2)cc1 (single isomer, unassigned) [Example 960] measured with human IDO1 (Homo sapiens).
Result: < 50 nM

Q: Please indicate recorded IC50 of CCCN(c1ccc(C(CC)CC(=O)O)cc1NC(=O)Nc1cnc(C)nc1)C1CCOCC1 (racemic) measured with human IDO1 (Homo sapiens).
Result: > 50 nM

Q: Please indicate recorded IC50 of COC(Cc1ccc(N(CC(C)C)C2CCCCC2)c(NC(=O)Nc2ccc(C#N)cc2F)c1)C(=O)O (racemic) measured with human IDO1 (Homo sapiens).
Result: < 50 nM

Q: Please indicate recorded IC50 of COCC(CC(=O)O)c1ccc(N(CC2CC2)C2CCOCC2)c(Nc2ccc(Cl)c(OCC3CC3)c2)c1 (single isomer, unassigned) measured with human IDO1 (Homo sapiens).
Result: > 50 nM
